test_description: Mycobacterium tuberculosis growth inhibition, primary screen (AID 1259343)
condition_info: at 10 µM, stronger effect = higher value
Hit rate of the full screen: of about 6,200 compounds, about 2,900 (47%) were called active. So high a share suggests a set chosen from earlier hits. The list shows a part of the results.
Okay, here is how we bin by inhibition: low value (below 40%), medium value (40% to below 60%), high value (60% or more)

Examples from the recorded data:
COc1ccccc1OS(=O)(=O)CCS(=O)(=O)c1ccc(Cl)cc1 :: low value
Clc1ccc(CNc2c3c(nc4nncn24)CCC3)cc1 :: medium value
Nc1ccc(Cl)c(Cl)c1 :: high value
N#Cc1cccc(NCc2c(F)cccc2Cl)c1 :: low value
O=C(O)Cc1ccc([N+](=O)[O-])cc1Sc1ccc(Cl)cc1 :: medium value

Lookup: Quick check: band for CCc1ccc(CN(C)C(=O)c2cc(COc3ccc(-n4cncn4)cc3)on2)cc1
Found: low value

Lookup: Quick check: band for C=CCN(C(=O)c1cccc(OC)c1)c1nc2ccccc2s1
Found: low value
